- Test system: Plasmodium berghei
- METHOD NOTES: Luciferase/luciferin-expressing antifolate-resistant parasites were used to infect a culture of HepG2 cells that were pre-incubated with compounds. Infected hepatocytes emit light due to the luciferase reaction. Assay results are presented as the percent inhibition of light emission compared to control. […]
- Type: functional
- CONDITION LABEL: sporozoite, FFLUC_HILL_SLOPE 11.8, FFLUC_R_SQUARED 0.584, PBLUC_HILL_SLOPE 10.3, PBLUC_R_SQUARED 0.0293, read-out: LUCIFERASE INFECTION ASSAY - IC50
pIC50: −log10 of the molar value.
MEASUREMENT LABEL: pIC50

Exercise: Which pIC50 value is on record for `COc1cc(OC)c(C2CCN(C(=O)c3nn(-c4ccc(F)cc4)c4c3CCCC4)CC2)c(OC)c1` ?
Solution: < 5.00

----------
- Test system: Plasmodium berghei
- METHOD NOTES: Luciferase/luciferin-expressing antifolate-resistant parasites were used to infect a culture of HepG2 cells that were pre-incubated with compounds. Infected hepatocytes emit light due to the luciferase reaction. Assay results are presented as the percent inhibition of light emission compared to control. […]
- Type: functional
- CONDITION LABEL: sporozoite, FFLUC_HILL_SLOPE 2.23, FFLUC_R_SQUARED 0.596, PBLUC_HILL_SLOPE 13.3, PBLUC_R_SQUARED 0.223, read-out: LUCIFERASE INFECTION ASSAY - IC50
MEASUREMENT LABEL: IC50 (µM)
Give the value in µM but do not write µM after it.

Exercise: Which IC50 value is on record for COc1ccccc1-n1nnnc1SCC(O)Cn1c2ccccc2c2ccccc21 (stereo unspecified) ?
Solution: 9.95

----------
- Test system: Plasmodium berghei
- METHOD NOTES: Luciferase/luciferin-expressing antifolate-resistant parasites were used to infect a culture of HepG2 cells that were pre-incubated with compounds. Infected hepatocytes emit light due to the luciferase reaction. Assay results are presented as the percent inhibition of light emission compared to control. […]
- Assay type: functional
- CONDITION LABEL: sporozoite, HEPG2TOX_HILL_SLOPE 5.76, HEPG2TOX_R_SQUARED 0.0288, PBLUC_HILL_SLOPE 1.24, PBLUC_R_SQUARED 0.576, read-out: LUCIFERASE INFECTION ASSAY - IC50
MEASUREMENT LABEL: IC50 (µM)
Give the value in µM but do not write µM after it.

Exercise: Which IC50 value is on record for `c1cnc2ccc(-c3cnc4cnc(-c5ccsc5)cn34)cc2c1` ?
Solution: 3.87

----------
- Tested on: Plasmodium berghei
- METHOD NOTES: Luciferase/luciferin-expressing antifolate-resistant parasites were used to infect a culture of HepG2 cells that were pre-incubated with compounds. Infected hepatocytes emit light due to the luciferase reaction. Assay results are presented as the percent inhibition of light emission compared to control. […]
- Format: functional
- CONDITION LABEL: sporozoite, read-out: LUCIFERASE INFECTION ASSAY - IC50
MEASUREMENT LABEL: IC50

{"COMPOUND": "Cc1nc2cc3c(cc2n1CC(=O)N1CCN(c2ccccc2)CC1)OCCO3", "IC50": "> 10 µM"}

Exercise: Which IC50 value is on record for Cc1csc(C(C#N)C(=O)COC(=O)c2ccccc2SCC(=O)N(C)C)n1 (configuration not stated) ?
Solution: > 10 µM

Exercise: Which IC50 value is on record for `Cc1ccc(S(=O)(=O)N(C)CC(=O)N(C)Cc2ccccc2OC(F)(F)F)cc1C` ?
Solution: > 10 µM

meta.source: ChEMBL document CHEMBL4483862
